# protocol: Cytotoxicity against mouse fibroblast NCTC clone 929 cells assessed as viable cells at 25 microg/ml incubated for 24 hrs by CCK-8 assay
# Format: toxicity, cell-based
# assayConditions: NCTC clone 929 (L929) fibroblast cells, at 25 µg/mL, read-out: Activity
endpointName: viability at 24 h, 25 microg/ml (%)
Kindly provide the numeric value in % only, without the unit symbol.

Q: Using the record for `C=C(C)[C@@H]1CCC(C)=C[C@H]1c1c(OCCCNC(=N)N)cc(CCCCC)cc1OCCCNC(=N)N` , report its viability at 24 h, 25 microg/ml.
A: 68.7

* * *

# MIC values compiled below
# Tested on: Acinetobacter baumannii
# protocol: Antibacterial activity against Acinetobacter baumannii ATCC 17978 assessed as inhibition of bacterial growth incubated for 24 hrs by broth dilution method
# Assay type: functional
Kindly provide the numeric value in µg/mL only, without the unit symbol.

Example results:
- substanceSmiles: "C=C(C)[C@@H]1CCC(C)=C[C@H]1c1c(OCC(=O)N[C@@H](CCCNC(=N)N)C(N)=O)cc(CCCCC)cc1OCC(=O)N[C@@H](CCCNC(=N)N)C(N)=O"
  MIC / µg/mL: 50
- substanceSmiles: "C=C(C)[C@@H]1CCC(C)=C[C@H]1c1c(OCCCCNC)cc(CCCCC)cc1OCCCCNC"
  MIC / µg/mL: 25
- substanceSmiles: "C=C(C)[C@@H]1CCC(C)=C[C@H]1c1c(OCCCCNC(=N)N)cc(CCCCC)cc1OCCCCNC(=N)N"
  MIC / µg/mL: 1.56

Q: Using the record for `C=C(C)[C@@H]1CCC(C)=C[C@H]1c1c(OCCCCN)cc(CCCCC)cc1OCCCCN` , report its MIC.
A: 3.12

Q: Using the record for `C=C(C)[C@@H]1CCC(C)=C[C@H]1c1c(OCC(=O)N[C@@H](CCCNC(=N)N)C(=O)OC)cc(CCCCC)cc1OCC(=O)N[C@@H](CCCNC(=N)N)C(=O)OC` , report its MIC.
A: 12.5

Q: Using the record for `C=C(C)[C@@H]1CCC(C)=C[C@H]1c1c(OCC(=O)N[C@@H](CCCCN)C(=O)OC)cc(CCCCC)cc1OCC(=O)N[C@@H](CCCCN)C(=O)OC` , report its MIC.
A: 50

Q: Using the record for `C=C(C)[C@@H]1CCC(C)=C[C@H]1c1c(OCCCCCCNC(=N)N)cc(CCCCC)cc1OCCCCCCNC(=N)N` , report its MIC.
A: 12.5

Q: Using the record for `C=C(C)[C@@H]1CCC(C)=C[C@H]1c1c(OCCCCNCCC)cc(CCCCC)cc1OCCCCNCCC` , report its MIC.
A: 12.5

Q: Using the record for `C=C(C)[C@@H]1CCC(C)=C[C@H]1c1c(OCCCCCNC(=N)N)cc(CCCCC)cc1OCCCCCNC(=N)N` , report its MIC.
A: 3.12

* * *

# System: Staphylococcus aureus
# protocol: Antibacterial activity against methicillin-resistant Staphylococcus aureus NCTC 10442 assessed as inhibition of bacterial growth incubated for 24 hrs by broth dilution method
# Assay type: functional
endpointName: MIC (µg/mL)
Kindly provide the numeric value in µg/mL only, without the unit symbol.

Q: Record `C=C(C)[C@@H]1CCC(C)=C[C@H]1c1c(OCCCCNCCC)cc(CCCCC)cc1OCCCCNCCC` : what is its MIC with Staphylococcus aureus?
A: 1.56

Q: Record `C=C(C)[C@@H]1CCC(C)=C[C@H]1c1c(OCC(=O)N[C@@H](CCCNC(=N)N)C(=O)N[C@@H](CCCNC(=N)N)C(=O)OC)cc(CCCCC)cc1OCC(=O)N[C@@H](CCCNC(=N)N)C(=O)N[C@@H](CCCNC(=N)N)C(=O)OC` : what is its MIC with Staphylococcus aureus?
A: 1.56

Q: Record `C=C(C)[C@@H]1CCC(C)=C[C@H]1c1c(OCCCCCNC(=N)N)cc(CCCCC)cc1OCCCCCNC(=N)N` : what is its MIC with Staphylococcus aureus?
A: 0.78

Q: Record `C=C(C)[C@@H]1CCC(C)=C[C@H]1c1c(OCCCCN(C)CCCN(C)CCCNC)cc(CCCCC)cc1OCCCCN(C)CCCN(C)CCCNC` : what is its MIC with Staphylococcus aureus?
A: 1.56

Q: Record `C=C(C)[C@@H]1CCC(C)=C[C@H]1c1c(OCCCCN)cc(CCCCC)cc1OCCCCN` : what is its MIC with Staphylococcus aureus?
A: 3.12

Q: Record `C=C(C)[C@@H]1CCC(C)=C[C@H]1c1c(OCCCCNC)cc(CCCCC)cc1OCCCCNC` : what is its MIC with Staphylococcus aureus?
A: 3.12
